system: T1, HLA-A*02:01 on T2 cells alone (no peptide added) (human)
T1 construct: TAP-deficient T2 cells without pulsed peptide; negative control target, and the HLA molecule whose stabilisation by peptides is read in the T2 stabilization assay; also called HLA-A*02 molecule; HLA-A2 molecule
test_protocol: flow cytometry, phage on T2 without peptide; secondary only 320, unstained 91.4
reported_property: Median:FITC-A

binder	reported_property	val
EXT017-32 scFv phage clone (scFv, also called EXT017-32 phage; phage clone #32) scFv: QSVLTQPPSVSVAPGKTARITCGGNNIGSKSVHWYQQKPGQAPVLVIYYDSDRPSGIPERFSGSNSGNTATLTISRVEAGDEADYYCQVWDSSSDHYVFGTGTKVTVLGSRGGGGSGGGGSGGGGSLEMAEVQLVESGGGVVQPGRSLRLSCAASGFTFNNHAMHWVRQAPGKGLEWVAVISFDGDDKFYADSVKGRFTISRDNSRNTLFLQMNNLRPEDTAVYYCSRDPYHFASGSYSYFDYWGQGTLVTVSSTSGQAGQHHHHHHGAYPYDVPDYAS	Median:FITC-A	356
#25 (scFv, also called EXT017-25; EXT017-25 scFv phage clone) scFv (VL-linker-VH-His/HA tag): QSVLTQPPSVSAAPGQKVTISCSGSSSNIGNNYVSWYQFLPGTAPKLLIYDNNQRPSGIPDRFSGFKSGTSATLDITGLQTGDEADYYCGTWDNSLSAAVFGRGTKLTVLGSRGGGGSGGGGSGGGGSLEMAQMQLVQSGTEVKRAGASVKVSCKASGYTFTNYYMHWVRQAPGQGLEWMGIINPSGGSTTYAQKFQGRVTMTRDTSTSTVYMELSDLGSEDTAVYYCARSWSKTEGSDRWGQGTLVTVSSTSGQAGQHHHHHHGAYPYDVPDYAS	Median:FITC-A	386
#30 (scFv, also called EXT017-30; EXT017-30 scFv phage clone) scFv: SYVLTQPPSVSVAPGQTARMTCEGSNLGSKSVHWYQQKPGQAPVLVVHDDSDRPSGIPDRFSGSKSGNTATLTISRVEAGDEADYYCQVWHSSSDHYVFGTATKVTVLGSRGGGGSGGGGSGGGGSLEMAQVQLVQSGAEVKKPGASVKVSCKASGYTFTNYYIHWVRQAPGQGLEWMGIIRPSGGITNYAQKFQGRVSMTRDTSTSTVYMELSSLRSEDTAVYYCARSWHENSGVDSWGQGTLVTVSSTSGQAGQHHHHHHGAYPYDVPDYAS	Median:FITC-A	354
EXT017-26 scFv phage clone (scFv, also called phage clone #26) scFv: SYVLTQPPSVSVAPGQTARITCGGTDIRRKTVHWYQQKPGLAPVLVLYDDSDRPSGIPERFSGSNSGNTATLTISRVEGGDEADYYCQVWDNDNDHYVFGPGTKVTVLGSRGGGGSGGGGSGGGGSLEMAEVQLVQSGAEVKKPGASVKVSCKASGYTFTNYYIHWVRQTPGEGLEWMGIIRPSGGNTNYAQKFQGRVTMTRDTSTRTVYMELSSLRSEDTAVYYCARSWDTFSDEWGQGTLVTVSSTSGQAGQHHHHHHGAYPYDVPDYAS	Median:FITC-A	385
#55 (scFv, also called EXT017-55; EXT017-55 scFv phage clone) scFv (VL-linker-VH-His/HA tag): QSALTQPASVSGSPGQSITISCTGPTSDFNDYLFVSWYQQHPGKAPKLILYDVTHRPSGVSGRFSGSKSASTASLTISGLQAEDEADYFCGSKTGRTTYVFGTGTKVTVLGSRGGGGSGGGGSGGGGSLEMAQVQLVQSGAEVKKPGASVKVSCKASGYTFDNFGISWVRQAPGQGLEWMGWINTYDGYTNYVEKLQGRVTMTTDTSTGTAYMELRGLRSDDTAVYYCARSVPHQISYGDLWGQGTLVTVSSTSGQAGQHHHHHHGAYPYDVPDYAS	Median:FITC-A	389
#29 (scFv, also called EXT017-29; EXT017-29 scFv phage clone) scFv (VL-linker-VH-His/HA tag): QSVLTQPPSVSAAPRQKVTISCSGSSSNIGNNYVSWYQQLPGTAPKLLIYDDNKRPSGIPDRFSGSKSGTSATLGITGLQTGDEADYYCGTWDSSLSAVVFGGGTKLTVLGSRGGGGSGGGGSGGGGSLEMAQVQLVQSGTEVKRAGASVKVSCKASGYTFTNYYMHWVRQAPGQGLEWMGIINPSIGSTNYAQKFQGRVTMTRDTSTSTVFMELSSLRSDDTAVYYCARSFGDSDGADSWGQGTLVTVSSTSGQAGQHHHHHHGAYPYDVPDYAS	Median:FITC-A	369
#34 (scFv, also called EXT017-34; EXT017-34 scFv phage clone) scFv (VL-linker-VH-His/HA tag): QSALTQPPSASGSPGQSVTISCTGTSSDVGAYNYVSWYQHYPGKAPKLMIYEVSERPSGVPDRFSGSKSGNTASLTVSGLQAEDEADYFCSSYAGSNNFVFGTGTKVTVLGSRGGGGSGGGGSGGGGSLEMAEVQLVQSGAEVKKPGSSVKVSCKASGGTFSSYAISWVRQAPGQGLEWMGRIIPILGIANYAQKFQGRVTITADKSSSTAYMALSSLTSEDTAVYYCARGGDYVESWFDPWGQGTLVTVSSTSGQAGQHHHHHHGAYPYDVPDYAS	Median:FITC-A	361

Source listed as patent US20190284262A1.
